Hey, just so you know, these numbers are from PubChem BioAssay (NCI).

System: 786-0 renal
Assay: NCI tumour cell line growth inhibition, 48 h
Items are presented alongside their recorded TGI.

{"compound": "COC(=O)C12CCC(C(F)(F)C1=O)C2(C)C (stereo not given)", "test.system": "786-0 renal", "result": "> 100 µM"}
{"compound": "CC1(C)C(=O)/C(=C\\c2ccccn2)C[C@]2(C)[C@H]3CC[C@@H]4[C@@H](C(=O)/C=C/c5ccccn5)CC[C@@]4(C)[C@]3(C)CC[C@@H]12", "test.system": "786-0 renal", "result": "2.77 µM"}

Measured on 786-0 renal, `COc1cccc2c(Nc3ccc(S(=O)(=O)Nc4ncccn4)cc3)c3ccc([N+](=O)[O-])cc3nc12` has a documented TGI of > 100 µM

Measured on 786-0 renal, `C/C=N\n1c(C)n[nH]c1=O` has a documented TGI of > 100 µM

Measured on 786-0 renal, COc1cccc(NC(=O)CC(=O)N2NC(c3ccccc3)C(N=Nc3cccc(C(=O)O)c3)C2=O)c1 (stereo not given) has a documented TGI of > 100 µM

Measured on 786-0 renal, `CC(=O)OC[C@]1(C)C=C2C(=O)[C@](C)(O)C3(CC3)C(C)=C2[C@H]1OC(=O)N(C)CCN(C)C(=O)OC(C)(C)C` has a documented TGI of 2.8 µM

Measured on 786-0 renal, `CCc1n[nH]c(=O)n1NC(=O)CCCC(=O)O` has a documented TGI of > 100 µM

Measured on 786-0 renal, `COC(=O)CCCc1c(-c2[nH]c3ccccc3c2CCCC(=O)OC)[nH]c2ccccc12` has a documented TGI of > 100 µM

Measured on 786-0 renal, `CCCCCCc1nn2c(-c3ccncc3)nnc2s1` has a documented TGI of > 10 µM

Measured on 786-0 renal, CC1=NN(c2nc(N)nc(/C(C#N)=C\C3COc4ccccc4C3=O)n2)C(C)(C)C1 (stereo not given) has a documented TGI of > 100 µM

----------
System: NCI-H226 lung
Assay: NCI tumour cell line growth inhibition, 48 h
Items are presented alongside their recorded GI50.

{"compound": "Cc1ccc(-c2cc(C(=O)N3N=C(c4ccc(N)cc4)CC3c3ccc(Cl)cc3)c3ccccc3n2)cc1 (stereo not given)", "result": "6.47 µM"}

The recorded GI50 for COc1ccc(/C=N/C2=C(C#N)C(c3ccccc3)c3c(ccc4ccccc34)O2)cc1 (stereo not given) is 2.17 µM

The recorded GI50 for `NC(=O)c1cccc(N2Cc3ccccc3OC3=C2C(=O)c2c(O)ccc(O)c2C3=O)c1` is 2.04 µM

The recorded GI50 for Clc1ccc(C2c3ccccc3-c3nccn32)c(Cl)c1 (stereo not given) is 6.92 µM

The recorded GI50 for CCN(CC)c1ccc(/C=C2\SC(=O)C(Nc3nnc(-c4cccnc4SCc4ccccc4)o3)C2=O)cc1 (stereo not given) is 9.41 µM

----------
System: UO-31 renal
Assay: NCI tumour cell line growth inhibition, 48 h
Items are presented alongside their recorded TGI.

Example cases with answers are listed next.
{"molecule": "C=CCC12CC(=O)CCC1CC(=O)C2 (stereo not given)", "readout": "TGI", "result": "> 100 µM"}
{"molecule": "CN([O-])c1nc(N(C)[O-])nc(N2CCOCC2)n1.CN([O-])c1nc(N(C)[OH2+])nc(N2CCOCC2)n1.[Fe+3]", "readout": "TGI", "result": "> 100 µM"}
{"molecule": "N#CC1(C#N)C2=C(CCCC2)NC(c2ccc(Br)cc2)C1(C#N)C#N (stereo not given)", "readout": "TGI", "result": "3.03 µM"}
{"molecule": "COc1ccc(OC)c(N2C(=O)/C(=C\\c3ccccc3)SC2c2cc(OC)c(OC)c(OC)c2)c1 (stereo not given)", "readout": "TGI", "result": "> 100 µM"}

# evaluate next
The recorded TGI for Nc1nc(N)c2cc(CNc3ccc(C(=O)NC(CC(=O)O)C(=O)O)cc3)ccc2n1 (stereo not given) is > 100 µM

----------
System: EKVX NSCLC
Experiment: NCI tumour cell line growth inhibition, 48 h
readout: TGI

Example cases with answers are listed next.
{"compound": "CCCCc1ccc(Nc2nc(=S)c3ncn(COCCO)c3[nH]2)cc1", "TGI": "> 100 µM"}
{"compound": "N#Cc1c(-c2ccccc2)c(C#N)c(=S)n(C2OC(CO)C(O)C(O)C2O)c1N (stereo not given)", "TGI": "> 100 µM"}

The recorded TGI for O=C(CCN1CCCC1)CC(c1ccccc1)c1c(O)c2ccccc2oc1=O (stereo not given) is > 100 µM

The recorded TGI for Clc1ccc(C2c3ccccc3-c3nccn32)c(Cl)c1 (stereo not given) is 19.3 µM

The recorded TGI for COc1ccc(NC(=O)C2C(=O)N(c3ccc(OC)cc3)C(=O)/C2=N\N)cc1 (stereo not given) is > 100 µM

----------
Tested on: A498 renal
Assay: NCI tumour cell line growth inhibition, 48 h; in the data active means GI50 below about 0.43 µM; inactive means the rest
Outcomes you can answer with include only these: yes (active), no (inactive)

Reference set (5 entries):
{"molecule": "Cc1cc(Nc2cccc(F)c2)nc(NCc2ccccc2)n1", "label.class": "no"}
{"molecule": "COc1cccc(/C=N/Nc2ncnc3c2cnn3-c2cccc(OC)c2)c1", "label.class": "no"}
{"molecule": "Cc1c(C(N)=O)sc2c1c(=O)n(Cc1ccccc1)c1nnc(SCC(=O)Nc3ccc(Cl)cc3)n21", "label.class": "no"}
{"molecule": "COc1ccc2nc3cc(Cl)ccc3c(NCCCCCN3CCCCC3)c2c1", "label.class": "yes"}
{"molecule": "Cn1cc(C2=C(c3cn(CCCO)c4ccccc34)C(=O)NC2=O)c2ccccc21", "label.class": "no"}

Q. For C[C@]12CCC3c4ccc(O)cc4CCC3C1CC[C@@]2(O)C#Cc1ccc(C#C/C=C\C#Cc2ccccc2N)cc1 (some centres undefined) , which call appears in the assay record?
A. no

Q. For `COc1ccc2c(c1)C(=O)c1c-2n(CCCNCCO)c(=O)c2ccccc12` , which call appears in the assay record?
A. yes

Q. For `CC(=O)c1cc2c(c(O)c1C)C(=O)C(=O)c1c(O)cccc1-2` , which call appears in the assay record?
A. no

Q. For COC(=O)C(N)CSC(c1ccccc1)(c1ccccc1)c1ccccc1 (centres undefined) , which call appears in the assay record?
A. no

----------
System: UACC-257 melanoma
Assay: NCI tumour cell line growth inhibition, 48 h
Items are presented alongside their recorded TGI.

{"item.smiles": "O=C(Nc1cccc(-c2cccc(F)c2)c1)C1CCN(Cc2cccc3cccnc23)CC1", "TGI": "3.75 µM"}
{"item.smiles": "NC(=O)N/N=C\\c1ccccc1OCc1cccc(COc2ccccc2/C=N\\NC(N)=O)n1", "TGI": "> 100 µM"}
{"item.smiles": "CC(=O)OC[C@]1(C)C=C2C(=O)[C@](C)(O)C3(CC3)C(C)=C2[C@H]1OC(=O)N(C)CCN(C)C(=O)OC(C)(C)C", "TGI": "13.8 µM"}

The recorded TGI for `Brc1ccc(N=NN2CCCC2)cc1` is > 100 µM

The recorded TGI for `C/C=N\n1c(C)n[nH]c1=O` is > 100 µM

The recorded TGI for `CCOC(=O)N/N=C(\Cc1ccccc1)OCC` is > 100 µM

----------
Test system: 786-0 renal
Experiment: NCI tumour cell line growth inhibition, 48 h
Items are presented alongside their recorded TGI.
Please state the figure in µM; there is no need to write the unit.

Example cases with answers are listed next.
{"compound": "CC(C)NCC(O)c1cc(OCc2ccccc2)c(OCc2ccccc2)cc1NC(=O)CCC(=O)O (stereo unspecified)", "readout": "TGI", "readout.number": 20.9}
{"compound": "COc1ccc2nc3cc(Cl)ccc3c(NCCCCCN3CCCCC3)c2c1", "readout": "TGI", "readout.number": 1.95}
{"compound": "COc1ccc(C2C=C(c3ccccc3)Nc3nnnn32)cc1 (stereo unspecified)", "readout": "TGI", "readout.number": 91.1}
{"compound": "Cc1cc(Nc2cccc(F)c2)nc(NCc2ccccc2)n1", "readout": "TGI", "readout.number": 22.1}

# evaluate next
The recorded TGI for `CN(C)CCCN1c2ccccc2CCc2cccc([N+](=O)[O-])c21` is 28.6

----------
System: UO-31 renal
Experiment: NCI tumour cell line growth inhibition, 48 h
readout: TGI (µM)
Please state the figure in µM; there is no need to write the unit.

Example cases with answers are listed next.
{"compound": "O=C1C=CC(=O)c2ccc(=O)ccc21", "unit.of.measure": "µM", "TGI": 22.1}
{"compound": "COc1c2c(cc3nc4ccccc4nc13)CC[C@H](NC(C)=O)c1cc(=O)c(SC)ccc1-2", "unit.of.measure": "µM", "TGI": 28.7}

# evaluate next
Measured on UO-31 renal, C=C(C)C(=O)OC1CC2(C)OC(=CC2=O)C(C)CC2OC(=O)C(=C)C12 (stereo not given) has a documented TGI of 16.6
